- system name: Amine oxidase [flavin-containing] B (Homo sapiens)
- Sequence (P27338 whole entry): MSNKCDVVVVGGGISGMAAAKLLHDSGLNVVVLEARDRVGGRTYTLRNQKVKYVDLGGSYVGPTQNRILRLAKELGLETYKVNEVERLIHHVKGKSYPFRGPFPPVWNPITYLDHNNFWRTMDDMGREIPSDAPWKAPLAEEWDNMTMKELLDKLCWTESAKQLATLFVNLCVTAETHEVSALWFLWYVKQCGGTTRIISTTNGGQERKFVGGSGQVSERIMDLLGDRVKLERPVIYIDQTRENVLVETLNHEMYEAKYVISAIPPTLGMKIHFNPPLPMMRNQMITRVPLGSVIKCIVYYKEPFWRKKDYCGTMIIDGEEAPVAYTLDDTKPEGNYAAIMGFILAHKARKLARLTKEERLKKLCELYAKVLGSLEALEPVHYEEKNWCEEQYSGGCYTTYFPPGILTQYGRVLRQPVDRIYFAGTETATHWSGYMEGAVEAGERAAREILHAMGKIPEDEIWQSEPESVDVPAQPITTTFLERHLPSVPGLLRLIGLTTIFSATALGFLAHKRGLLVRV
- protocol notes: Inhibition of MAO-B (unknown origin)
measured quantity: IC50 (nM)
Give bare numbers, in nM.

Inquiry: Which measured IC50 value corresponds to CCN(CC)Cc1ccc(/C=C/C(=O)c2ccc(OC)c(OC)c2)cc1O ?
Reply text: 1210
